Biological target: human GPR40 (Homo sapiens, UniProt O14842)
Construct: expressed in transfected cells
Sequence (O14842 whole entry): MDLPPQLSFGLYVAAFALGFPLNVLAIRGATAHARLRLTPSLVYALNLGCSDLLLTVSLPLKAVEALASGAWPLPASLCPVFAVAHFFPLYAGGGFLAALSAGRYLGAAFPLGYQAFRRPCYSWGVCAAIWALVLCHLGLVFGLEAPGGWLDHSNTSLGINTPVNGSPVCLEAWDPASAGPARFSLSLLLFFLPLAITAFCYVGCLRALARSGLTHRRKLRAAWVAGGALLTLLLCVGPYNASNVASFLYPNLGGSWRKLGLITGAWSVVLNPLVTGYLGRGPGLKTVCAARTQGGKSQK
Experiment: Evaluation of human GPR40 agonist activity with increase in intracellular Ca2+ concentration as an index (FLIPR)
Assay type: cell-based
Conditions: test compound at final concentration of 1 μM; CHO(dhfr−) cells stably expressing human GPR40; 100% = activity of 10 μM of compound of WO 2015/020184 Example 153, 0% = DMSO
Attribute Measured: activity (human GPR40 agonist activity) (%)
Numeric only. Scale: %

Study these solved cases before continuing.
Compound | Result Unit | Val
COc1cc(N2CCC(COc3cc4c(cn3)OCCC4CC(=O)O)CC2)c(OCC(F)(F)C(F)(F)F)cn1 (centres unmarked) [Example 2] | % | 108
COc1ccc(C2CCN(CC(F)(F)F)CC2)c(N2CCC(COc3cc4c(cn3)CCC4CC(=O)O)CC2)c1 (centres unmarked) [Example 4] | % | 108
COc1cc(N2CCC(COc3cc4c(cn3)OCCC4CC(=O)O)CC2)c(C2CCN(CC(F)(F)F)CC2)cn1 (single isomer, unassigned) [Example 5] | % | 111
COc1ccc(CCC(F)(F)F)c(N2CCC(COc3cc4c(cn3)OCCC4CC(=O)O)CC2)c1 (centres unmarked) [Example 1] | % | 107

Shift focus to the following entry.
[Q] activity (human GPR40 agonist activity) lookup needed for COc1cc(N2CCC(COc3cc4c(cn3)OCCC4CC(=O)O)CC2)c(C2CCN(CC(F)(F)F)CC2)cn1 (single isomer, unassigned) [Example 6] , thanks.
[A] 59
